The reported measurements were obtained from patent US20160176930A1.

Target: T1, human mu opioid receptor (human, UniProt P35372 1-400)
T1 construct: whole, on cells; Assays were done on membranes of CHO cells expressing the cloned human receptor; also called MOR; mu receptor
T1 sequence (P35372 whole entry): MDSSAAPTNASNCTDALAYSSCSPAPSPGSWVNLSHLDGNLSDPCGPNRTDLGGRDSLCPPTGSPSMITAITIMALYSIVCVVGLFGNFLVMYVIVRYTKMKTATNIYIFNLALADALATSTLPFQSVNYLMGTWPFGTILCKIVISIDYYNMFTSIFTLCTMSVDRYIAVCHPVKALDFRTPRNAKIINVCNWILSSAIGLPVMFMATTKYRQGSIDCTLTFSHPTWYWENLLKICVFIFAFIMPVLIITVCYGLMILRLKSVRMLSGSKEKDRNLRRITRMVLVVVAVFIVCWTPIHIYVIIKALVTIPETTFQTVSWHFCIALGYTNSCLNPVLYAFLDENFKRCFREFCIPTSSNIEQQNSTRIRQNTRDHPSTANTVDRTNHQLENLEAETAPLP
Assay: radioligand competition vs 3H-DAMGO, membranes of CHO cells expressing cloned human mu receptor
Positions of bridges follow the written chain, without caps; N, C: chain ends. Non-standard residues stand in square brackets, D forms with d. No end group written: not given here.
result type: Ki (nM)
Unit nM implied. Number only.

Known Ki results, listed for orientation:
Please give the measured Ki for this binder: Y[dE]FFK-NH2 (lactam 2-5; N-terminus assumed; SMILES NC(=O)[C@@H]1CCCCNC(=O)CC[C@@H](NC(=O)[C@@H](N)Cc2ccc(O)cc2)C(=O)N[C@@H](Cc2ccccc2)C(=O)N[C@@H](Cc2ccccc2)C(=O)N1, Cyclic pentapeptide analog of endomorphin-2; also called Compound 2; Comp) [Tyr-c[D-Glu-Phe-Phe-Lys]-NH2]
0.73

Please give the measured Ki for this binder: Y[dK]WFE-NH2 (lactam 2-5; N-terminus assumed; SMILES NC(=O)[C@@H]1CCC(=O)NCCCC[C@@H](NC(=O)[C@@H](N)Cc2ccc(O)cc2)C(=O)N[C@@H](Cc2c[nH]c3ccccc23)C(=O)N[C@@H](Cc2ccccc2)C(=O)N1, Cyclic pentapeptide analog of endomorphin-1; also called Compound 1; Comp) [Tyr-c[D-Lys-Trp-Phe-Glu]-NH2]
0.49

Please give the measured Ki for this binder: YPFF-NH2 (Natural endogenous tetrapeptide amide; also called EM2) [endomorphin-2 (Tyr-Pro-Phe-Phe-NH2)]
1.32

Next:
Please give the measured Ki for this binder: Y[dK]WFD-NH2 (lactam 2-5; N-terminus assumed; SMILES NC(=O)[C@@H]1CC(=O)NCCCC[C@@H](NC(=O)[C@@H](N)Cc2ccc(O)cc2)C(=O)N[C@@H](Cc2c[nH]c3ccccc23)C(=O)N[C@@H](Cc2ccccc2)C(=O)N1, also called Compound 5; Comp) [Tyr-c[D-Lys-Trp-Phe-Asp]-NH2]
0.43
